# Tested on: guinea pig ileal strips
# ASSAY METHOD TEXT: Modified Schultz-Dale Assay: inhibition of antigen-induced anaphylactic contraction of passively sensitized ileal strips
# Type: cell-based
# REPORTED CONDITIONS: Cavia porcellus; **tested at 20 μg/ml, added at peak of contraction after antigen; read-out: Postchallenge mean percent inhibition
MEASUREMENT LABEL: inhibition at 20 µg/mL (%)
Give a bare numeral; the unit % is implied.

Here is how some compounds turned out for inhibition at 20 µg/mL.
compound=CCCCCCOc1ccc(C(=O)CCCCC(=O)O)cc1 readout_units=% value_measured=18
compound=CCCCCCCc1ccc(C(=O)CCCCC(=O)O)cc1 readout_units=% value_measured=68
compound="O=C(O)CCCC(=O)c1ccccc1 [Example 22, 4-Benzoylbutanoic acid, reference compound]" readout_units=% value_measured=11
compound=CCCCCc1ccc(C(=O)CCC(=O)O)cc1 readout_units=% value_measured=49
compound=CCCCCc1ccc(C(=O)CCCC(=O)O)cc1 readout_units=% value_measured=47

Quick check: inhibition at 20 µg/mL of `CCCCCc1ccc(C(=O)CCCCC(=O)O)cc1` ?
58

Please report the recorded inhibition at 20 µg/mL for `CCCCCCCCCCCCCCc1ccc(C(=O)CCCCC(=O)O)cc1` .
14

Please give the measured inhibition at 20 µg/mL for this compound: `CCCCCCCCCc1ccc(C(=O)CCCCC(=O)O)cc1`
2

I have this compound here, `Cc1ccc(C(=O)CCCCC(=O)O)cc1` , and I need its recorded inhibition at 20 µg/mL.
11

Entry `CCCCCCCCCCc1ccc(C(=O)CCCCC(=O)O)cc1` has what inhibition at 20 µg/mL?
11

Recorded values, source patent US5504244A.
